Source of measurements: paper PMC10786891

Measured Kd, listed per entry for reference.
# Test System: T1, EsCas13d, nuclease-dead (Eubacterium siraeum, UniProt B0MS50, R295A;H300A;R849A;H854A)
# T1 sequence: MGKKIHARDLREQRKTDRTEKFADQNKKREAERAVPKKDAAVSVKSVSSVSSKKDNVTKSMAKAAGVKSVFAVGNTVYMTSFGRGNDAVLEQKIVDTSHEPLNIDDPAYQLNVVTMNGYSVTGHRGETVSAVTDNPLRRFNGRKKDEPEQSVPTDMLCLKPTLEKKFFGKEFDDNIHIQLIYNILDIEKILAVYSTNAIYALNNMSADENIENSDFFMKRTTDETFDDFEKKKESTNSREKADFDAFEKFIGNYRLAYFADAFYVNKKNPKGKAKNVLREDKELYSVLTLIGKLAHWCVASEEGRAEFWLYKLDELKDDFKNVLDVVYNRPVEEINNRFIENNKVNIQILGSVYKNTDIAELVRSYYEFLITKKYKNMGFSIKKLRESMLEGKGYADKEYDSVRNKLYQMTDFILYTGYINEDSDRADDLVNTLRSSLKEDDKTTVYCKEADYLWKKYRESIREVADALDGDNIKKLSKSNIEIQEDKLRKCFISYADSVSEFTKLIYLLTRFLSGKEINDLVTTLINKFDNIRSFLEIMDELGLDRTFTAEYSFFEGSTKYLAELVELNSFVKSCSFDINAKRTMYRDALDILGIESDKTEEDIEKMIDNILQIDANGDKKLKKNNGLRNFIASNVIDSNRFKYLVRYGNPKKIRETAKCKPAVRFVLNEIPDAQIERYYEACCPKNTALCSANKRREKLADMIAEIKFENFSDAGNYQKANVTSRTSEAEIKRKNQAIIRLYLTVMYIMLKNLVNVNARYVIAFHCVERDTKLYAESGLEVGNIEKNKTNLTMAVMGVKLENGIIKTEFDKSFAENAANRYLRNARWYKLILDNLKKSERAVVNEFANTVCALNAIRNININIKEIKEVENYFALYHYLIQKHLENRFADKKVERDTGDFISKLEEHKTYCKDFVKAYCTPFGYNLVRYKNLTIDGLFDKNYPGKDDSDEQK
# Protocol Text: crRNA (strand 1, pre-loaded); Mg2+; 40 mM Tris-HCl pH 7.5, 150 mM NaCl, 6 mM MgCl2, 1 mM DTT, 0.1% Tween-20, 0.2 mg/ml BSA; 25 C; 10 min per concentration, then washed
# Experimental Setup: tags: His6-TwinStrep-SUMO cleaved; N-terminal SNAP kept (SNAP-Surface 488); label: 3' end held by stalled T7 RNA polymerase
# number only, unit nM dropped from output

Here is how some binders turned out for Kd.
target 1 MT 5'PFS CUG 3'PFS AUG (mixed) RNA 1: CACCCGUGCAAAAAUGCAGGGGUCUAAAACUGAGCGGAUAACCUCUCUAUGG RNA 2: GGGAAUGGAUCCACAUCUACGAAUUCCUGCCAUAGAGAGGUUAUCCGCUCAAUGAGAUCGGAAGAGCACACGU :: 33.5
target 3 A13G,U22A (mixed) RNA 1: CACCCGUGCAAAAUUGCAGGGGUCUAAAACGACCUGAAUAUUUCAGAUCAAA RNA 2: GGGAAUGGAUCCACAUCUACGAAUUCGUUAUUGAUCUGGAAUAUUCAGGUCUGCAGAUCGGAAGAGCACACGU :: 43
target 2 MT 5'PFS AUG 3'PFS AUA (mixed) RNA 1: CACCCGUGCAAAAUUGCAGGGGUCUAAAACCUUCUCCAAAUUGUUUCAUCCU RNA 2: GGGAAUGGAUCCACAUCUACGAAUUCAUGAGGAUGAAACAAUUUGGAGAAGAUAAGAUCGGAAGAGCACACGU :: 9

QUERY: Using the record for target 3 G3C,C6U (mixed) RNA 1: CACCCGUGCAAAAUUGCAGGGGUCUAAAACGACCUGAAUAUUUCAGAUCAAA RNA 2: GGGAAUGGAUCCACAUCUACGAAUUCGUUUUUGAUCUGAAAUAUUUAGCUCUGCAGAUCGGAAGAGCACACGU , report its Kd.
RESULT: 13.1
